- Test Target: PA4985 solute binding protein (Pseudomonas aeruginosa, UniProt Q9HUI0)
- Sequence (Q9HUI0 entry or part of it): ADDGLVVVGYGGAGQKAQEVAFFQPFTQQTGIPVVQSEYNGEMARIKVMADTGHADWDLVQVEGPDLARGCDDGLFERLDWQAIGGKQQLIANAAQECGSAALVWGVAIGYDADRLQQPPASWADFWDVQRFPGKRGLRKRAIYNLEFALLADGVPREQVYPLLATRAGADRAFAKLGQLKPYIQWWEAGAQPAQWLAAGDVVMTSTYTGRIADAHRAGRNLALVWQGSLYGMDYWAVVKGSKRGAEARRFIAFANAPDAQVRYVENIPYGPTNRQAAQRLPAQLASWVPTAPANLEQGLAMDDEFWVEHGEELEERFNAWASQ
- Measurement Conditions: thermal shift assay, Biolog compound arrays, more than 2°C considered significant

- Compound: "NCCN"
  Tm shift (°C): 3.5
- Compound: "NCCCCNCCCN"
  Tm shift (°C): 2.8
- Compound: "NCCCCC(=O)O [5‐AMV, 5‐aminovalerate]"
  Tm shift (°C): 7.6

###

- Test Target: AgtB (PA0604) solute binding protein (Pseudomonas aeruginosa)
- Run Description: biochemical

- Compound: "NCCCCC(=O)O [5‐AMV, 5‐aminovalerate]"
  Unit Label: "µM"
  Kd: 17

###

- Test Target: PA0602 (Pseudomonas aeruginosa, UniProt Q9I5T6)
- Construct: residues 22-344, signal peptide omitted, N-terminal His-tag with thrombin site, expressed in E. coli BL21 (DE3)
- Run Description: Isothermal titration calorimetry (VP-microcalorimeter) of 20-40 µM purified SBP titrated with 0.25-2.5 mM ligand in TMP buffer (5 mM Tris-HCl, 5 mM MES, 5 mM PIPES, 10% glycerol, pH 8), fitted with the one binding site model; temperature not stated.
Recorded Endpoint: Kd (µM)

- Compound: "NCCN [Ethylenediamine, ethylenediamine]"
  Test Target: "PA0602 (Pseudomonas aeruginosa, UniProt Q9I5T6)"
  Recorded Result: 103

###

- Test Target: PA4985 (Pseudomonas aeruginosa, UniProt Q9HUI0)
- Construct: residues 40-363, signal peptide omitted, N-terminal His-tag with thrombin site, expressed in E. coli BL21 (DE3)
- Sequence (Q9HUI0 entry or part of it): as above
- Run Description: Isothermal titration calorimetry (VP-microcalorimeter) of 20-40 µM purified SBP titrated with 0.25-2.5 mM ligand in TMP buffer (5 mM Tris-HCl, 5 mM MES, 5 mM PIPES, 10% glycerol, pH 8), fitted with the one binding site model; temperature not stated.
pKd: −log10 of the molar value.
Recorded Endpoint: pKd

- Molecular String: "NCCN"
  Recorded Result: 4.72

###

- Test Target: PA0602 solute binding protein (Pseudomonas aeruginosa)
- Run Description: biochemical

- Compound: "NCCCC(=O)O [GABA, γ‐aminobutyrate]"
  Kd / µM: 2.3
- Compound: "NCCCCC(=O)O [5‐AMV, 5‐aminovalerate]"
  Kd / µM: 30

###

Each entry below carries its recorded Tm shift.
- Test Target: PA0602 solute binding protein (Pseudomonas aeruginosa)
- Measurement Conditions: thermal shift assay, Biolog compound arrays, more than 2°C considered significant

- Compound: "NCCN"
  Tm shift [°C]: 2.0
- Compound: "NCCCCC(=O)O [5‐AMV, 5‐aminovalerate]"
  Tm shift [°C]: 2.3

###

- Test Target: PA0602 solute binding protein (Pseudomonas aeruginosa, UniProt Q9I5T6)
- Measurement Conditions: thermal shift assay, Biolog compound arrays, more than 2°C considered significant

- Compound: "NCCCCNCCCN [Spermidine, spermidine]"
  Test Target: "PA0602 solute binding protein (Pseudomonas aeruginosa, UniProt Q9I5T6)"
  Tm shift: "No binding"
- Compound: "NCCCCN [putrescine]"
  Test Target: "PA0602 solute binding protein (Pseudomonas aeruginosa, UniProt Q9I5T6)"
  Tm shift: "No binding"
